Entries and their measured Esterase rate, Elastase follow.
- experimental-target: Elastase (Sus scrofa)
- Sequence (P00772 27-266): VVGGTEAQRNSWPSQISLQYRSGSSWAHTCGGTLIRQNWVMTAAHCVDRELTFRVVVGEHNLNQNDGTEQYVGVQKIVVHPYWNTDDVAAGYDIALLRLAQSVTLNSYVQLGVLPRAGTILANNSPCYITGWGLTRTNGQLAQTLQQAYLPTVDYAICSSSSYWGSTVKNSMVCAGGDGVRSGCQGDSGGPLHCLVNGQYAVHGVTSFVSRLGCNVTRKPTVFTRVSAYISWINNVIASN
- measurement-protocol: Esterase assay, elastase
- Format: biochemical
- experimental-parameters: Z-AX-OMe substrate, X = P1 residue; rates approximately ± 10%
Where a SMILES comes first, the peptide text is derived from it. The star is where a group is joined. Cbz = O=C(OCc1ccccc1)*

Field: example entries. Status: answers known.
compound	recorded-value
COC(=O)[C@H](CCC(=O)O)NC(=O)[C@H](C)NC(=O)OCc1ccccc1 [Glu] (Cbz-Ala-Glu-OMe)	0 A580 change/min./mg protease
COC(=O)[C@H](CO)NC(=O)[C@H](C)NC(=O)OCc1ccccc1 [Ser] (Cbz-Ala-Ser-OMe)	0.4 A580 change/min./mg protease
COC(=O)[C@H](Cc1c[nH]c2ccccc12)NC(=O)[C@H](C)NC(=O)OCc1ccccc1 [Trp] (Cbz-Ala-Trp-OMe)	0 A580 change/min./mg protease

Prompt: What value of measured Esterase rate, Elastase is listed for COC(=O)[C@H](CC(C)C)NC(=O)[C@H](C)NC(=O)OCc1ccccc1 [Leu] (Cbz-Ala-Leu-OMe) ?
Response: 3.4 A580 change/min./mg protease

meta.source: patent US5932410A
